# testedSystem: anticardiolipin antibody (serum of patient ACA-6501)
# assayProcedure: competitive ELISA, binding of patient ACA-6501 serum to cardiolipin/β2-GPI coated plate
# Parameters: species or system human
# runConditions: amount of peptide that inhibited the human serum's binding by 50%; serum of patient ACA-6501 (GPL score 1500)
Numbered stars: 1 amine (or outer) side, 2 acyl side, 3 side chain; on linkers, the order of the positions; unused ones are H or OH. Bridge positions count the residues as written; N and C are the ends. Square brackets hold non-standard residues; d marks the D form. Peptide text beside a SMILES is read from it. Abu(4-yl) = O=C([C@H](CC[*:3])N[*:1])[*:2]; hCys = N[C@@H](CCS)C(=O)O
metric: IC50 (µM)
One number for each entry, in µM.

// solved cases for IC50 follow
{"columns": ["molecule", "metric", "quantitativeReadout"],
 "data": [
  ["CC(C)C[C@@H]1NC(=O)[C@H](CCCCN)NC(=O)CNC(=O)[C@H](CC(C)C)NC(=O)[C@H](C(C)C)NC(=O)CNC(=O)[C@H](CC(C)C)NC(=O)[C@@H](N)CSCC[C@@H](C(N)=O)NC1=O [G3-METE] (H-CLGVLGKL[Abu(4-yl)]-NH2; thioether 1-9)", "IC50", 104],
  ["CC(C)C[C@@H]1NC(=O)[C@@H](NC(=O)[C@@H]2CCCN2C(=O)CN)CSCC[C@@H](C(=O)N2CCC[C@H]2C(=O)NCC(=O)O)NC(=O)[C@H](CC(C)C)NC(=O)[C@H](CCCCN)NC(=O)CNC(=O)[C@H](CC(C)C)NC(=O)[C@H](C(C)C)NC(=O)CNC1=O (single isomer, unassigned) [l-2G3-METE]", "IC50", 209],
  ["CC(C)C[C@@H]1NC(=O)[C@H](CCCCN)NC(=O)CNC(=O)[C@H](CC(C)C)NC(=O)[C@H](C(C)C)NC(=O)CNC(=O)[C@H](CC(C)C)NC(=O)[C@@H](N)CCSC[C@@H](C(N)=O)NC1=O [G3-EMTE] (H-[Abu(4-yl)]LGVLGKLC-NH2; thioether 1-9)", "IC50", 52],
  ["CC(C)C[C@@H]1NC(=O)[C@H](CCCCN)NC(=O)CNC(=O)[C@H](CC(C)C)NC(=O)[C@H](C(C)C)NC(=O)CNC(=O)[C@H](CC(C)C)NC(=O)[C@H](NC(=O)[C@@H]2CCCN2C(=O)CN)CSCC[C@@H](C(=O)N2CCC[C@H]2C(=O)NCC(=O)O)NC1=O (single isomer, unassigned) [d-2G3-METE]", "IC50", 100],
  ["CC(C)C[C@@H]1NC(=O)[C@H](CCCCN)NC(=O)CNC(=O)[C@H](CC(C)C)NC(=O)[C@H](C(C)C)NC(=O)CNC(=O)[C@H](CC(C)C)NC(=O)[C@@H](N)CCSCC[C@@H](C(N)=O)NC1=O [G3-EETE] (H-[hCys]LGVLGKL[Abu(4-yl)]-NH2; thioether 1-9)", "IC50", 89]
]}

anticardiolipin antibody (serum of patient ACA-6501) / IC50 / CC(C)C[C@@H]1NC(=O)C(N)CSC[C@@H](C(N)=O)NC(=O)[C@H](CC(C)C)NC(=O)[C@H](CCCCN)NC(=O)CNC(=O)[C@H](CC(C)C)NC(=O)[C@H](C(C)C)NC(=O)CNC1=O (stereo partly drawn) [G3-MMTE] : value?
126
